Experiment: AUC in Wistar rat at 1 mg/kg, iv by HPLC-MS/MS analysis
Type: ADME, organism-based
Parameters: dose 1 mg/kg, route intravenous
Conditions: plasma
QUANTITY MEASURED: AUC (ng·h/mL)
Numbers only, in ng·h/mL.

Incoming: Look up AUC: [O-][S+](c1cccc(OC(F)(F)F)c1)c1c(O)c(-c2cccnc2)cc2ccccc12 (stereo unspecified)
Outgoing: 1780

----------
Experiment: Terminal half life in Wistar rat at 1 mg/kg, iv by HPLC-MS/MS analysis
Assay type: ADME, organism-based
Design: dose 1 mg/kg, route intravenous
Conditions: in vivo, read-out: beta t1/2 (converted)
QUANTITY MEASURED: half-life (min)
Numbers only, in min.

Incoming: Look up half-life: [O-][S+](c1cccc(OC(F)(F)F)c1)c1c(O)c(-c2cccnc2)cc2ccccc12 (stereo unspecified)
Outgoing: 240

----------
Target: UniProt:P19099
Type: cell-based
Conditions: V79MZ, 1 h
QUANTITY MEASURED: inhibition (%)
Answers are plain numbers, in %.

Some entries whose results are on file:
{"COMPOUND": "[O-][S+](c1ccccc1OC(F)(F)F)c1c(O)c(-c2cccnc2)cc2ccccc12 (stereo not given)", "inhibition, %": 77}
{"COMPOUND": "[O-][S+](c1ccc(F)c(Cl)c1)c1c(O)c(-c2cccnc2)cc2ccccc12 (stereo not given)", "inhibition, %": 91}
{"COMPOUND": "[O-][S+](c1ccc(Cl)cc1)c1c(O)c(-c2cccnc2)cc2ccccc12 (stereo not given)", "inhibition, %": 84}

Provide inhibition for all items below, preserving their order.
1. [O-][S+](c1ccccc1Cl)c1c(O)c(-c2cccnc2)cc2ccccc12 (stereo not given)
2. COc1ccccc1[S+]([O-])c1c(O)c(-c2cccnc2)cc2ccccc12 (stereo not given)
3. [O-][S+](c1cccc(C(F)(F)F)c1)c1c(O)c(-c2cccnc2)cc2ccccc12 (stereo not given)
4. [O-][S+](c1cccc(Cl)c1)c1c(O)c(-c2cccnc2)cc2ccccc12 (stereo not given)
5. O=S(=O)(c1ccccc1)c1cc2ccccc2cc1-c1cccnc1
6. [O-][S+](c1ccc(OC(F)(F)F)cc1)c1c(O)c(-c2cccnc2)cc2ccccc12 (stereo not given)

Outgoing:
90
86
88
90
16
88

Incoming: Look up inhibition: COc1cccc([S+]([O-])c2c(O)c(-c3cccnc3)cc3ccccc23)c1 (stereo not given)
Outgoing: 87

----------
These molecules were tested on Cytochrome P450 11B2, mitochondrial (Homo sapiens); IC50 is the recorded read-out.
Sequence (P19099 whole entry): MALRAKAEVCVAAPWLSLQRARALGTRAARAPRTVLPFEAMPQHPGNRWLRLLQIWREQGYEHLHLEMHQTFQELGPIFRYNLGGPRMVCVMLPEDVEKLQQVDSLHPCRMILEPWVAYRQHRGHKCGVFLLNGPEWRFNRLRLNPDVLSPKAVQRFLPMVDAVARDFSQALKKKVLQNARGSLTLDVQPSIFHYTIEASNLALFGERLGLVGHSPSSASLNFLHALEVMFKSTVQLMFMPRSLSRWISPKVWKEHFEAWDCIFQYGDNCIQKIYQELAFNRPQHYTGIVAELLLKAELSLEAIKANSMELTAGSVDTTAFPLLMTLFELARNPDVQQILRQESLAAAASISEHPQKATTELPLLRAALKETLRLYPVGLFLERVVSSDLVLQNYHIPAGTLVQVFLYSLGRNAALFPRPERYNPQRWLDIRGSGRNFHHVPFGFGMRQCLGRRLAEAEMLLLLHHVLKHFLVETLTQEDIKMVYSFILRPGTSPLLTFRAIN
One number for each entry, in nM.

{"MOLECULE": "[O-][S+](c1ccc(OC(F)(F)F)cc1)c1c(O)c(-c2cccnc2)cc2ccccc12 (centres undefined)", "IC50 / nM": 32}

Provide IC50 for all items below, preserving their order.
1. [O-][S+](c1cccs1)c1c(O)c(-c2cccnc2)cc2ccccc12 (centres undefined)
2. [O-][S+](c1ccccc1C(F)(F)F)c1c(O)c(-c2cccnc2)cc2ccccc12 (centres undefined)
3. [O-][S+](c1cccc(OC(F)(F)F)c1)c1c(O)c(-c2cccnc2)cc2ccccc12 (centres undefined)

Outgoing:
[192, 53, 14]

Provide IC50 for all items below, preserving their order.
1. [O-][S+](c1cccc(C(F)(F)F)c1)c1c(O)c(-c2cccnc2)cc2ccccc12 (centres undefined)
2. [O-][S+](c1cc(Cl)cc(Cl)c1)c1c(O)c(-c2cccnc2)cc2ccccc12 (centres undefined)
3. [O-][S+](c1cccc(F)c1)c1c(O)c(-c2cccnc2)cc2ccccc12 (centres undefined)
4. COc1ccc([S+]([O-])c2c(O)c(-c3cccnc3)cc3ccccc23)cc1 (centres undefined)
5. [O-][S+](c1ccc(C(F)(F)F)cc1)c1c(O)c(-c2cccnc2)cc2ccccc12 (centres undefined)

Outgoing:
[43, 47, 39, 48, 25]
